Recorded values, source PubChem BioAssay AID1159580.

experiment: chemical genetic growth profiling, strain panel (AID 1159580);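 further: tested at 20 µM; growth read once vehicle control cultures reached saturation at 30 °C; 1 = growth at the plate median or of vehicle wells; lower values mean less growth of the strain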; settings: S. cerevisiae deletion strains, growth OD, locus YCL061C, strain MRC1 (second series), hits give low values
Screen size: about 5,500 compounds; about 2,000 (36%) were called active. Not shown: some 18% with an inconclusive outcome. Some of the results follow.
outcomeMeasure: normalized growth
Form: value (number only, do not type unit).

Sample records with normalized growth:
compound: CNCCNS(=O)(=O)c1cccc2cnccc12
normalized growth: 1
--
compound: O=c1oc(Cl)c(Cl)c2ccccc12
normalized growth: 1
--
compound: CC12CCC3C(CCC4=C(O)C(=O)CCC43C)C1CCC2=O (configuration not stated)
normalized growth: 0.998
--
compound: CN1Cc2c(N)cccc2C(c2ccccc2)C1 (configuration not stated)
normalized growth: 0.989
--
compound: COc1ccc2[nH]cc(CCNC(C)=O)c2c1
normalized growth: 1.01
--
compound: O=c1n(CCCN2CCN(c3cccc(Cl)c3)CC2)nc2ccccn12
normalized growth: 0.998

[in] Tell me measured normalized growth for NC(=S)c1ccc[n+]([C@@H]2O[C@@H](COP(=O)([O-])OP(=O)(O)OC[C@H]3O[C@@H](n4cnc5c(N)ncnc54)C(OP(=O)(O)O)[C@H]3O)C(O)C2O)c1 (some centres not stated) please.
[out] 1.01

[in] Tell me measured normalized growth for C=CCN1CCC23c4c5ccc(O)c4O[C@H]2C(=O)CC[C@@]3(O)C1C5 (some centres not stated) please.
[out] 1

[in] Tell me measured normalized growth for Fc1ccc(C(c2ccc(F)cc2)N2CCN(C/C=C/c3ccccc3)CC2)cc1 please.
[out] 0.96

[in] Tell me measured normalized growth for NCCNC(=O)c1ncsc1-c1cccc(F)c1 please.
[out] 0.991

[in] Tell me measured normalized growth for COc1ccc2[nH]c(I)c(CCNC(C)=O)c2c1 please.
[out] 1.01

[in] Tell me measured normalized growth for CC(=O)O[C@H]1C[C@@H]2CC[C@@H]3[C@H](CC[C@@]4(C)[C@H]3C[C@H]([N+]3(C)CCCCC3)[C@@H]4OC(C)=O)[C@@]2(C)C[C@@H]1[N+]1(C)CCCCC1 please.
[out] 0.988

[in] Tell me measured normalized growth for CCCCCCC/C=C\CCCCCCCCC(=O)O please.
[out] 1.01

[in] Tell me measured normalized growth for Nn1nnc2ccccc21 please.
[out] 1.01

[in] Tell me measured normalized growth for O=c1[nH]c2ccccc2n1CCCN1CCN(C(c2ccccc2)c2ccccc2)CC1 please.
[out] 1

[in] Tell me measured normalized growth for C(=C\c1ccccc1)/CN1CCN(C(c2ccccc2)c2ccccc2)CC1 please.
[out] 0.992

[in] Tell me measured normalized growth for COc1cccc2c1[C@@H]1CN(CCCCn3c(=O)[nH]c4c(sc5ncc(-c6ccccc6)nc54)c3=O)C[C@@H]1CO2 please.
[out] 0.962

[in] Tell me measured normalized growth for Fc1ccc(CN(C2=NCCN2)c2c(Cl)cccc2Cl)cc1 please.
[out] 1.01

[in] Tell me measured normalized growth for O=c1[nH]c2ccccc2n1CCCN1CCC(n2c(=O)[nH]c3cc(Cl)ccc32)CC1 please.
[out] 1.01

[in] Tell me measured normalized growth for N[C@@]1(C(=O)O)CC[C@@H](C(=O)O)C1 please.
[out] 1

[in] Tell me measured normalized growth for OCCN1CCN(CCCN2c3ccccc3Sc3ccc(Cl)cc32)CC1 please.
[out] 1.01

[in] Tell me measured normalized growth for O=C(O)CNC(=O)C(CS)Cc1ccccc1 (configuration not stated) please.
[out] 1
